- study system: T1, C terminal domain of polyadenylate-binding protein 1 (PABP1 PABC) (human, UniProt P11940 542-619)
- T1 construct: also called PABPC1 PABC; PABP1 C
- T1 sequence (P11940 542-619): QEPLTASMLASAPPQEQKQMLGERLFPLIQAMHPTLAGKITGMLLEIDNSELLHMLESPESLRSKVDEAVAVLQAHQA
- cond: both partners purified
Reported pKd is given for each of the following binders.
# reply with the number alone; pKd is -log10 of concentration in mol/L

Example results:
| binder | pKd |
| --- | --- |
| MSKLSVNAPEFYPSGY [PAIP1 125-140 (Human)] | 5.80 |
| KSNLNPNAKEFVPGVKY [PAIP2 108-123 (Human)] | 6.80 |
| SAGLNPAAVPFVPKNQY [P/V/C 183-198 (HeV)] | 5.70 |

Now turn to the next binder.
stdin: Recorded pKd of TTGLNPTAVPFTLRNLY [P/V/C 183-198 (NiV)] , please.
stdout: 4.84
